- assayed-target: T1, anti-CD28 scFv (VH-linker 1-VL) (biotinylated (site not stated))
- T1 construct: Captured as biotinylated scFv on neutravidin coated plates in the phage ELISA
- T1 sequence (scFv, as listed by the source): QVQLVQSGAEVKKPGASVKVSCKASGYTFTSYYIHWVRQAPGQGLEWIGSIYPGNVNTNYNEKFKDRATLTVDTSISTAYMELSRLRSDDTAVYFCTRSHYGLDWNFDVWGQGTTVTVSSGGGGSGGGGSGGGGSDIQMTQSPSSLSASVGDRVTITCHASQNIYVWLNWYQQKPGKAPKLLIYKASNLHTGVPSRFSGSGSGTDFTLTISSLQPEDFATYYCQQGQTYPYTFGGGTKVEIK
- assay-notes: phage ELISA; biotinylated scFv on neutravidin plate; anti-M13-HRP;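 note: crude clonal phage supernatant added to wells pre-incubated with soluble CD28 protein or only blocking buffer, then washed, bound phage read out with an HRP-linked anti-M13 antibody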
measurement-name: CD28 scFv signal
Enter a number only.

MDWCPKSLWAECFN (on phage (pIII fusion)) [Phage-308 clonal phage peptide]
2.38
NYWCPSSMWNRCLH (on phage (pIII fusion)) [Phage-219 clonal phage peptide]
0.158
MDWCPRTLWHVCFN (on phage (pIII fusion)) [Phage-240 clonal phage peptide]
2.6

Ask: Entry MDWCPKVMWHYCFA (on phage (pIII fusion)) [Phage-250 clonal phage peptide] : reported CD28 scFv signal = ?
Result: 1.14

Ask: And the next one, MDWCPRHLWNECFA (on phage (pIII fusion)) [Phage-306 clonal phage peptide] ?
Result: 2.39
